# Test system: C. difficile ATCC 43255
# Assay: Determination of minimal-inhibitory concentrations (microdilution), C. difficile ATCC 43255
# Type: cell-based, Clostridioides difficile
# Condition Summary: Clostridioides difficile, ATCC43255, 24 h, C. difficile ATCC 43255, 24 h; read-out: MIC (μg/mL) 24 h
Listed here are molecules together with their documented MIC.
Endpoint Label: MIC (µg/mL)

>>> result_number("Oc1ccc(-c2noc(-c3ccc(OC4CCCC4)cc3)n2)cc1 [Compound 137]")
4
>>> result_number("Cn1c(-c2nc(-c3ccc(OC4CCCC4)cc3)no2)cnc1[N+](=O)[O-] [Compound 59]")
32
>>> result_number("Oc1ccc(-c2nc(-c3ccc(OC4CCCC4)cc3)no2)cc1 [Compound 2]")
2
>>> result_number("Oc1ccc(Nc2nc(-c3ccc(OC4CCCC4)cc3)no2)cc1 [Compound 64]")
16
>>> result_number("Oc1ccc(-c2nc(-c3ccc(C(O)C(F)(F)F)cc3)no2)cc1 (stereo not drawn) [Compound 108]")
32
